The reported numbers originate from PubChem BioAssay AID1159580.

Reported normalized growth values for the following compounds.
test summary: chemical genetic growth profiling, strain panel (AID 1159580);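 also: tested at 20 µM; growth read once vehicle control cultures reached saturation at 30 °C; 1 = growth at the plate median or of vehicle wells; lower values mean less growth of the strain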
recorded conditions: S. cerevisiae deletion strains, growth OD, locus YDL028C, strain MPS1, stronger effect = lower value
Screen size: about 5,500 compounds; about 2,000 (36%) were called active. Inconclusive results (about 18%) are left out. The list shows a part of the results.
Reply briefly: the number, and no unit.

Solved cases below.
>>> print(df.to_string())
                       chemical_structure  reported_property  measured_value
0  COc1ccc(C(=O)NCc2csc3ccc(Cl)cc23)cc1OC  normalized growth           0.986
1  CNC(=O)n1nc(C)c(Cc2csc3ccc(Cl)cc23)c1C  normalized growth           0.997

# ---- query compound ----
Looking for the measured normalized growth of NNC(=O)c1csc(Cc2c(Cl)sc3ccc(Cl)cc23)n1 , can you help?
0.996

====

test summary: chemical genetic growth profiling, strain panel (AID 1159580)
recorded conditions: S. cerevisiae deletion strains, growth OD, locus YLR371W, strain rom2
Screen size: about 5,500 compounds; about 2,000 (36%) were called active. Roughly 18% stayed inconclusive and do not appear here. Rule as the data show it: active = normalized growth mostly below about 0.91 (no sharp cut-off); inconclusive = no clear call, values can overlap the other calls; inactive = mostly above about 0.92. The list shows a part of the results.
Give one outcome, nothing more. List: active, inactive

molecule	qualitative label
C[C@@H]1CC2C3C[C@H](F)C4=CC(=O)C=C[C@]4(C)[C@@]3(F)[C@@H](O)C[C@]2(C)[C@@]1(O)C(=O)COC(=O)C(C)(C)C (some centres undefined)	inactive
CNC(=O)Oc1ccc2c(c1)[C@]1(C)CCN(C)[C@@H]1N2C	inactive
CO[C@]12C[C@@H](COC(=O)c3cncc(Br)c3)CN(C)[C@@H]1Cc1cn(C)c3cccc2c13	inactive

In this assay, the call recorded for O=c1[nH]cnc2[nH]ncc12 was what?
inactive

Continue with COc1cc([C@H]2Oc3cc([C@H]4Oc5cc(O)cc(O)c5C(=O)[C@@H]4O)ccc3O[C@@H]2CO)ccc1O
inactive

Please give the result for COc1cc(OC)c(OC)cc1C=O too.
inactive

Could you do the same for COc1cc(C)c(C(=O)Oc2cc(C)c(C(=O)O)c(O)c2C)c(OC)c1C , please?
inactive

Same lookup for CCCCC[C@H](CC(=O)NO)C(=O)N[C@H](C(=O)N1CCC[C@H]1CO)C(C)C , please.
inactive

# repeat for CC(CCC(=O)O)[C@H]1CCC2C3C[C@H](O)[C@@H]4C[C@H](O)CC[C@]4(C)C3CC[C@@]21C (some centres undefined)
inactive

====

normalized growth: recorded values
test summary: chemical genetic growth profiling, strain panel (AID 1159580);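 also: tested at 20 µM; growth read once vehicle control cultures reached saturation at 30 °C; 1 = growth at the plate median or of vehicle wells; lower values mean less growth of the strain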
recorded conditions: S. cerevisiae deletion strains, growth OD, locus YKL009W, strain mrt4, stronger effect = lower value
Out of some 5,500 compounds screened, about 2,000 (36%) were called active. Not shown: some 18% with an inconclusive outcome. Some of the results follow.

compound	normalized growth
C=C1C(C2(C)C=CC(=O)C(C)(C)C2CC(=O)OC)CC[C@@]2(C)[C@H](c3ccoc3)OC(=O)C3OC132 (some centres not stated)	0.986 (inactive)

Can you look up the measured normalized growth of CC1CCC2(OC1)OC1CC3C4CCC5C[C@@H](O)CCC5(C)C4=CCC3(C)C1[C@@H]2C (some centres not stated) for me?
0.988 (inactive)

Continue with C=C1[C@H]2CC[C@@]3(C)[C@H](c4ccoc4)OC(=O)C[C@]13O[C@H]1C[C@H](O)C(C)(C)[C@H](CC(=O)OC)[C@]12C
0.997 (inactive)

How about CC(=O)O[C@H]1CC[C@]2(C)C3C(=O)[C@@H](OC(C)=O)[C@@]4(C)C(C[C@@H]5O[C@]6(CCC(C)CO6)[C@@H](C)[C@@H]54)C3CC[C@H]2C1 (some centres not stated) ?
0.994 (inactive)

Same question for CC(=O)O[C@H]1CC[C@]2(C)C3=CC(=O)[C@@]4(C)C(C[C@@H]5OC6(OCC(C)CC6Br)[C@@H](C)[C@@H]54)C3CC[C@H]2C1 (some centres not stated) please.
1.01 (inactive)

Next compound up: C[C@]12C=CC(=O)C=C1CCC1C3C[C@@H](O)[C@](O)(C(=O)CO)[C@@]3(C)C[C@H](O)[C@@]12F (some centres not stated)
0.983 (inactive)

Again, but for C=C1C2CC[C@@]3(C)[C@H](c4ccoc4)OC(=O)C[C@]13O[C@H]1CC(=O)C(C)(C)C(CC(=O)OC)[C@@]21C (some centres not stated)
0.968 (inactive)

====

test summary: chemical genetic growth profiling, strain panel (AID 1159580);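 also: tested at 20 µM; growth read once vehicle control cultures reached saturation at 30 °C; 1 = growth at the plate median or of vehicle wells; lower values mean less growth of the strain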
recorded conditions: S. cerevisiae deletion strains, growth OD, locus YER016W, strain bim1, stronger effect = lower value
Screen size: about 5,500 compounds; about 2,000 (36%) were called active. Not shown: some 18% with an inconclusive outcome. This is one part of the list.
Consider the following compounds and their measured normalized growth readings.

Consider the following illustrative entries.
>>> print(df.to_string())
                                   compound    measured_value
0  CC(CCC(=O)O)[C@H]1CCC2C3CC[C@@H]4CCCC[C@]4(C)C3CC[C@@]21C (some centres not stated)   1.01 (inactive)
1      O=c1cc(-c2ccc(O)cc2)oc2cc(O)cc(O)c12   0.98 (inactive)
2  Cc1cc(C)cc(OCC2CNC(=O)O2)c1 (configuration not stated)  0.983 (inactive)
3  CC[C@H](CCC(C)[C@H]1CCC2C3CCC4C[C@@H](O)CC[C@]4(C)C3CC[C@@]21C)C(C)C (some centres not stated)  0.992 (inactive)
4  C[C@H](CCC(=O)O)[C@H]1CCC2C3C(CC[C@@]21C)[C@@]1(C)CC[C@@H](O)C[C@H]1C[C@H]3O (some centres not stated)   1.01 (inactive)

Query: normalized growth; subject: CCCC(C(=O)OCCN(CC)CC)(c1ccccc1)c1ccccc1
0.987 (inactive)

Entry CC(CCC(=O)O)[C@H]1CCC2C3CC[C@@H]4C[C@H](O)CC[C@]4(C)C3C[C@H](O)[C@@]21C (some centres not stated) please
0.975 (inactive)

Item: CC(CCC(=O)O)[C@H]1CCC2C3C[C@H](O)[C@@H]4C[C@H](O)CC[C@]4(C)C3CC[C@@]21C (some centres not stated)
0.981 (inactive)

// next record COC(=O)CCC(C)C1CCC2C3CC[C@@H]4C[C@H](O)CC[C@]4(C)C3C[C@H](O)[C@]12C (some centres not stated)
0.962 (inactive)

Queued: Cc1cc(O)c(C=O)c2c1C(=O)Oc1c(COC(=O)/C=C/C(=O)O)c(O)c(C(=O)O)c(C)c1O2
1.03 (inactive)

// next record CC(=O)Nc1ccccc1
0.973 (inactive)

Next compound up: COc1cc(OC)c(OC)cc1C=O
0.994 (inactive)

Can you check COC(=O)CCC(C)[C@H]1CCC2C3C(C[C@H](O)[C@@]21C)[C@@]1(C)CC[C@@H](O)C[C@H]1C[C@H]3O (some centres not stated) next?
1.01 (inactive)

Can you handle O=c1cc(-c2ccc(O)cc2)oc2cc(O)ccc12 next?
0.976 (inactive)

====

test summary: chemical genetic growth profiling, strain panel (AID 1159580);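 also: tested at 20 µM; growth read once vehicle control cultures reached saturation at 30 °C; 1 = growth at the plate median or of vehicle wells; lower values mean less growth of the strain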
recorded conditions: S. cerevisiae deletion strains, growth OD, locus YOR290C, strain snf2, stronger effect = lower value
About 2,000 (36%) of roughly 5,500 compounds were called active. About 18% were inconclusive and are not listed. Some of the results follow.
reported property: normalized growth

These solved cases illustrate the format of a correct answer.
compound	normalized growth
CCOC(=O)[C@H](CCc1ccccc1)N[C@@H](C)C(=O)N1Cc2ccccc2C[C@H]1C(=O)O	0.972 (inactive)
C=C1C2CCC3(C)C(c4ccoc4)OC(=O)CC13OC1CC(OC(C)=O)C(C)(C)C(CC(=O)OC)C12C (stereo not drawn)	0.996 (inactive)
C=Cc1c(C)c2[n-]c1=Cc1[n-]c(c(CC)c1C)C=c1[n-]c3c(c1C)C(=O)C(C(=O)[O-])C=3c1[n-]c(c(C)c1CCC(=O)[O-])C=2.[Cu] (stereo not drawn)	1.06 (inactive)
C=C1C2CC[C@@]3(C)[C@H](c4ccoc4)OC(=O)C[C@]13O[C@H]1CC(=O)C(C)(C)C(CC(=O)OC)[C@@]21C (stereo partly drawn)	0.97 (inactive)
C=C1C2CC[C@@]3(C)[C@H](c4ccoc4)OC(=O)C[C@]13O[C@H]1CC(O)C(C)(C)C(CC(=O)OC)[C@@]21C (stereo partly drawn)	0.987 (inactive)

Report normalized growth for COc1cc([C@@H]2c3cc4c(cc3[C@H](OC(C)=O)[C@H]3COC(=O)[C@@H]23)OCO4)cc(OC)c1OC please.
1.01 (inactive)

Now try CC12CC3CC(C)(C1)CC(N)(C3)C2 .
0.997 (inactive)

Now the compound C=C1C(C2(C)C=CC(=O)C(C)(C)C2CC(=O)OC)CC[C@@]2(C)[C@H](c3ccoc3)OC(=O)C3OC132 (stereo partly drawn)
1.05 (inactive)
